system-name: BCL-XL (Homo sapiens, UniProt Q07817)
Construct: endogenous in cells; host or cells: MOLT-4
Sequence (Q07817 whole entry): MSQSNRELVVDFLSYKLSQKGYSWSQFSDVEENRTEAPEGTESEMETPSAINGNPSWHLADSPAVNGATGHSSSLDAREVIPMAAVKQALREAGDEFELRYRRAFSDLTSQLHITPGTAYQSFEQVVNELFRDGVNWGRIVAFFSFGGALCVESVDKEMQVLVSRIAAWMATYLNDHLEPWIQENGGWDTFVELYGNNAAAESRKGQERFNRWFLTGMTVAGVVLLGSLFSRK
assay-method-text: BCL-XL degradation assay, western blot in MOLT-4 cells, 16 h
Format: cell-based
condition-context: western blot, MOLT-4 cells, 16 h; read-out: Bcl-xL WB in MOLT-4 degradation 16 h: Average Dmax %
Task for the reader: assign each of the following compounds its reported Dmax.

Task: I am curious: what Dmax value has been reported for Cc1ncsc1-c1ccc(CNC(=O)[C@@H]2C[C@@H](O)CN2C(=O)[C@@H](NC(=O)C2(F)CC2)C(C)(C)C)c(O[C@H]2CC[C@H](C(=O)N3CCN(CC[C@H](CSc4ccccc4)Nc4ccc(S(=O)(=O)NC(=O)c5ccc(N6CCN(CC7=C(c8ccc(Cl)cc8)CCC(C)(C)C7)CC6)cc5)cc4S(=O)(=O)C(F)(F)F)CC3)CC2)c1 [I-89] ?
Result: < 50%

Task: I am curious: what Dmax value has been reported for Cc1ncsc1-c1ccc(CNC(=O)[C@@H]2C[C@@H](O)CN2C(=O)[C@@H](NC(=O)CCCS(=O)(=O)NC(=O)c2nc(N3CCc4cccc(C(=O)Nc5nc6cccnc6s5)c4C3)ccc2-c2cnn(CC3CCCCC3)c2C)C(C)(C)C)cc1 [I-351] ?
Result: 50 to 75%

Task: I am curious: what Dmax value has been reported for Cc1ncsc1-c1ccc(CNC(=O)[C@@H]2C[C@@H](O)CN2C(=O)[C@@H](NC(=O)C2(F)CC2)C(C)(C)C)c(OCCCCCCCC(=O)N(C)CCCc2cccc(F)c2OCCCc2sc(N3CCc4cccc(C(=O)Nc5nc6ccccc6s5)c4C3)nc2C(=O)O)c1 [I-14] ?
Result: > 75%

Task: I am curious: what Dmax value has been reported for Cc1ncsc1-c1ccc(CNC(=O)[C@@H]2C[C@@H](O)CN2C(=O)[C@@H](NC(=O)C2(F)CC2)C(C)(C)C)c(OCCCCCC(=O)N(C)CCCc2cccc(F)c2OCCCc2sc(N3CCc4cccc(C(=O)Nc5nc6ccccc6s5)c4C3)nc2C(=O)O)c1 [I-13] ?
Result: > 75%
